- Test system: 786-0 renal
- measurementDescription: NCI-60 one-dose screen, 48 h (100 = growth as untreated, 0 = no growth, -100 = all killed)
- measurementSetup: 10 µM unless noted
The panel holds about 83,000 compounds, 20% with a hit somewhere; the sample as a whole holds those more often.
Threshold check on growth: strictly below 30% is 1; on or above 30% is -1.

Worked cases, answers included:
- chemicalStructure: "O=c1c2c3c(sc2n2c(-c4cn(-c5ccccc5)nc4-c4ccc(Cl)cc4)nnc2n1Cc1ccccc1)CCCC3"
  labelClass: -1
- chemicalStructure: "COc1cc(/C=N/NC(=O)Cn2c(C(C)C)nc3ccccc32)ccc1O"
  labelClass: -1

Data request: Does this molecule meet the criterion growth < 30%? `O=C1/C(=C\c2c[nH]c3ccccc23)c2ccccc2N1c1c(Cl)cccc1Cl`
Data returned: 1

Data request: growth strictly < 30% for this molecule? `COc1cccc(-c2nn(-c3ccccc3)cc2-c2ccnc(NCCCNC(=O)c3ccc(F)cc3)c2)c1`
Data returned: -1

Data request: Does `O=C(CSc1nnc(-c2ccc(NC(=O)c3cccnc3)cc2)o1)Nc1cccc(Br)c1` have growth strictly under 30%?
Data returned: -1

Data request: API: query returns whether the molecule falls strictly under 30% in growth. Query: `c1csc(-c2c3ccc(=[N+]4CCCCC4)cc-3oc3cc(N4CCCCC4)ccc23)c1`
Data returned: 1

Data request: Threshold test, growth < 30%: `O=C(O)c1ccc2c(c1Cl)C(=O)c1ccccc1C2=O`
Data returned: -1

Data request: Could you please tell me whether growth recorded for `O=C1C=C[C@]2(C[C@@H](c3cccc(C(F)(F)F)c3)O[C@@H](c3cccc(C(F)(F)F)c3)O2)O1` is less than 30%?
Data returned: 1

* * *

- System: HT29 colon
- measurementDescription: NCI-60 one-dose screen, 48 h
- measurementSetup: 10 µM unless noted
- Description: Growth inhibition of the HT29 human tumor cell line is measured as a screen for anti-cancer activity. Cells are grown in 96 well plates and exposed to the test compound for 48 hours. Compounds are tested at a single concentration, which is 10^-5 M for most compounds. The reported endpoint is percent growth (GI% or GIPRCNT), where numbers from 0 - 100% represent growth inhibition, and numbers from -100% - 0 represent cell death. For example, a value of 40 represents 60% growth inhibition. […]
Compounds without any hit were thinned out: in the full panel of roughly 83,000, 20% have a hit. Calls of active or inactive are those of the source. Rule for the calls: active = growth percent below 10; inactive = the rest.
Pick from active, inactive when you respond.

Please review the entries below; each comes with its answer.
- chemicalStructure: "COc1ccc2cc(-c3cc(OC)c(OC)c(OC)c3)c(=O)oc2c1"
  labelClass: "inactive"
- chemicalStructure: "O=S(=O)(Nc1cccc(Cl)c1)c1ccc(-c2cnc(C3CC3)o2)cc1"
  labelClass: "active"
- chemicalStructure: "O=C(c1ccccc1)c1c(/C=C/c2ccccc2)nc2ccccc2c1/C=C/c1ccc(Br)cc1"
  labelClass: "inactive"

Data request: Could you please tell me the result logged for `O=C(O)c1ccc2c(c1)CCC2` in this assay?
Data returned: inactive

Data request: State the result this test recorded for `COc1ccc(/C=c2\nc3n(-c4ccccc4)c4nc5c6c(sc5c(=N)n4n-3c2=O)CCCC6)cc1` .
Data returned: inactive

* * *

Each item that follows carries a reported growth.
- System: A549/ATCC NSCLC
- measurementDescription: NCI-60 one-dose screen, 48 h (100 = growth as untreated, 0 = no growth, -100 = all killed)
- measurementSetup: 10 µM unless noted
Compounds without any hit were thinned out: in the full panel of roughly 83,000, 20% have a hit.
The reply should be a number in %, with the unit left off.

- compound: "Cc1ccc(/C=C2\\C(=O)N(C)c3ccc(S(=O)(=O)Nc4ccc(C(C)(C)C)cc4)cc32)s1"
  growth / %: 33.1
- compound: "COc1ccc(-c2nc(SCCC(C)C)nc(N/N=C\\c3ccccc3O)c2C#N)cc1"
  growth / %: 78.2
- compound: "O=C(COc1ccc(/C=C2\\Oc3ccccc3C2=O)cc1)Nc1nc2c(s1)CCCC2"
  growth / %: 73.2
- compound: "COc1ccc(-c2nc3sccn3c2-c2cc(-c3cc(OC)c(OC)c(OC)c3)on2)cc1"
  growth / %: 104
- compound: "N#Cc1nc2c(S(=O)(=O)c3ccc(Cl)cc3)c(N)n(Nc3cccc(Cl)c3)c2nc1C#N"
  growth / %: 43.3

Query CCCCCCCOc1c(OC)cc(C2CC(=O)Nc3c2c(C)nn3-c2nc3ccccc3[nH]2)cc1OC (centres undefined) on A549/ATCC NSCLC; growth returned: 1.6

Entry `COc1ccc2c(c1)O/C(=C\c1cccc(OCC(=O)Nc3nc(C)c(C)s3)c1)C2=O` , A549/ATCC NSCLC data, growth value: 12.4

// growth (A549/ATCC NSCLC) for O=C(CC(SCc1ccccc1)c1ccccc1)c1ccccc1 (centres undefined) = 101

Item: `CCCCc1ccc(Nc2ccc(Nc3ccc(CCCC)cc3S(=O)(=O)O)c3c2C(=O)c2ccccc2C3=O)c(S(=O)(=O)O)c1` | System: A549/ATCC NSCLC | growth: 102

Tested system A549/ATCC NSCLC; growth recorded for `O=C(Nc1cccc(C(F)(F)F)c1)Nc1cccc(C(F)(F)F)c1` was -1.94

Form field growth for item `CCOC(=O)c1c2c(n3ccc(NC(=O)OC(C)(C)C)cc13)C(=O)c1ncccc1C2=O` on A549/ATCC NSCLC: -57.3

// returns growth for `COc1cc(CCC[P+](c2ccccc2)(c2ccccc2)c2ccccc2)cc2c1OCO2` with A549/ATCC NSCLC; value = 73.2

# growth measured on A549/ATCC NSCLC for item `NC(=O)c1ccc[n+](Cc2ccc(Cl)cc2Cl)c1` = 70.1
